Give activity change, negative = cytotoxicity for every item shown.
# Tested on: Hek293T
# assayOverview: Primary qHTS to identify gynecologic anti-cancer compounds using libraries of approved drugs and bioactive compounds (AID 1345084); also: % is scaled to controls: 0 for no effect and ±100 for the full control effect; nearly all actives have a fitted effect of over 55% in size
# measurementConditions: Gynecologic cancer cell panel viability, ATPlite luminescence, 48 h, control line for the selectivity index; series mostly up to 57.5 µM
Inconclusive results are not listed. The source made the active and inactive calls. Calls follow the shape of the dose curve; as a rule, active = well fitted cell-killing curve with a large enough effect; inconclusive = small, poorly fitted or top-dose-only effect, or effect the other way; inactive = flat fitted curve, though single readings scatter.

C[C@@H]1O[C@@H](O[C@H]2[C@@H](OC(=O)[C@]34CCC(C)(C)CC3C3=CCC5[C@@]6(C)C[C@H](O)[C@H](O[C@@H]7O[C@H](CO)[C@@H](O)[C@H](O)[C@H]7O[C@@H]7OC[C@@H](O)[C@H](O)[C@H]7O)[C@@](C)(C(=O)O)C6CC[C@@]5(C)[C@]3(C)CC4)OC[C@H](O)[C@@H]2O)[C@H](O)[C@H](O)[C@H]1O[C@@H]1OC[C@@H](O)[C@H](O)[C@H]1O (stereo partly drawn) : -3.38% [at 6.55 µM] (inactive)
C[C@H]1CC[C@@]2(OC1)O[C@H]1CC3[C@@H]4CC[C@@H]5C[C@@H](O[C@@H]6O[C@H](CO)[C@@H](O[C@@H]7O[C@H](CO[C@@H]8OC[C@@H](O)[C@H](O)[C@H]8O)[C@@H](O[C@@H]8O[C@H](CO)[C@H](O)[C@H](O)[C@H]8O)[C@H](O)[C@H]7O)[C@H](O)[C@H]6O)CC[C@]5(C)C4CC[C@]3(C)[C@H]1[C@@H]2C (stereo partly drawn) : -0.448% [at 11.6 µM] (inactive)

As a next step, examine the molecule that follows.
[ask] Which activity change, negative = cytotoxicity value is on record for C[C@@H]1O[C@@H](O[C@H]2CC[C@@]3(C)C(CC[C@]4(C)C3CC=C3[C@@H]5CC(C)(C)CC[C@]5(C(=O)O[C@@H]5O[C@H](CO)[C@@H](O)[C@H](O)[C@H]5O)CC[C@]34C)[C@]2(C)CO)[C@H](O)[C@H](O[C@@H]2O[C@H](CO)[C@@H](O)[C@H](O)[C@H]2O)[C@H]1O (stereo partly drawn) ?
[reply] -6.15% [at 11.6 µM] (inactive)
